- target.or.system: GDP-loaded kRas (1-169) G12C, C51S, C80L, C118S (Homo sapiens, UniProt P01116, C118S/C51S/C80L/G12C)
- Construct: GDP-loaded kRas (1-169) G12C, C51S, C80L, C118S
- experimental.protocol: Mass Spectrometry Reactivity Assay (MSRA), covalent adduct with kRas G12C
- Type: binding
- condition.parameters: 0.5 h at room temperature; 5 μM KRas protein; typical final concentration of the compounds 10 μM
measurement.kind: % Modification (0.5 h)

Below, 2 molecules whose answers are already recorded.
C=CC(=O)N1CCN(c2ncnc3c2C[C@@H](CO)[C@H](c2c(C)ccc4[nH]ncc24)C3)CC1 (relative stereo) [Example A7]: 11%
C=CC(=O)N1CCN(c2nc(OCCCN(C)C)nc3c2C[C@@H](C)[C@H](c2c(Cl)c(C)cc4[nH]ncc24)C3)CC1 (relative stereo) [Example C7]: 73%

Next item in the queue.
QUERY: Please report the recorded % Modification (0.5 h) for C=CC(=O)N1CCN(c2ncnc3c2CC[C@H](c2cc(O)cc4ccccc24)C3)CC1 (single isomer, unassigned) [Example G3] .
RESULT: 73%

---

- target.or.system: KRAS G12C in MiaPaCa2 cells (Homo sapiens, UniProt P01116, G12C)
- Construct: endogenous in cells; host or cells: MiaPaCa2
- experimental.protocol: MiaPaCa2 Cell Activity Assay (Raf-1 RBD capture of active Ras, MSD)
- Assay type: cell-based
- condition.parameters: MIAPaCa-2 cells, 6 hours treatment; assay limit is 30.0 μM
measurement.kind: IC50 (µM)
Give the value, in units of µM, as a plain number.

C=CC(=O)N1CCN(c2nc(N3CC(N(C)C)C3)nc3c2C[C@@H](C)[C@H](c2c(C)ccc4[nH]ncc24)C3)CC1 (single isomer, unassigned) [Example F2]: 0.285

QUERY: Please report the recorded IC50 for C=CC(=O)N1CCN(c2ncnc3c2C[C@@H](CO)[C@H](c2c(C)ccc4[nH]ncc24)C3)CC1 (relative stereo) .
RESULT: 29.3

QUERY: Please report the recorded IC50 for C=CC(=O)N1CCN(c2ncnc3c2C[C@@H](C)[C@H](c2c(Cl)c(C)cc4[nH]ncc24)C3)CC1 (relative stereo) .
RESULT: 0.462

---

Reported % Modification (0.5 h) by item:
- target.or.system: GDP-loaded kRas (1-169) G12C, C51S, C80L, C118S (Homo sapiens, UniProt P01116, C118S/C51S/C80L/G12C)
- Construct: GDP-loaded kRas (1-169) G12C, C51S, C80L, C118S
- experimental.protocol: Mass Spectrometry Reactivity Assay (MSRA), covalent adduct with kRas G12C
- Assay type: binding
- condition.parameters: 0.5 h at room temperature; 5 μM KRas protein; typical final concentration of the compounds 10 μM
- Procedure: Mass Spectrometry Reactivity Assay (MSRA) Compounds presented in the present invention covalently bind to kRas G12C using MSRA to detect a covalent adduct of the exemplary compound and kRas G12C. […] The percent of modified protein at the defined concentration of exemplary compound was calculated using the following formula: % mod=Num of modified peak/Sum of modified+unmodified.
Give the value, in units of %, as a plain number.

QUERY: Please report the recorded % Modification (0.5 h) for C=CC(=O)N1CCN(c2nc(N3CC(N(C)C)C3)nc3c2C[C@@H](C)[C@H](c2c(Cl)ccc4[nH]ncc24)C3)CC1 (relative stereo) .
RESULT: 72

---

- target.or.system: GDP-loaded kRas (1-169) G12C, C51S, C80L, C118S (Homo sapiens, UniProt P01116, C118S/C51S/C80L/G12C)
- Construct: GDP-loaded kRas (1-169) G12C, C51S, C80L, C118S
- experimental.protocol: Mass Spectrometry Reactivity Assay (MSRA), covalent adduct with kRas G12C
- Type: binding
- condition.parameters: 0.5 h at room temperature; 5 μM KRas protein; typical final concentration of the compounds 10 μM
measurement.kind: % Modification (0.5 h) (%)
Give the value, in units of %, as a plain number.

Below, 5 compounds whose answers are already recorded.
C=CC(=O)N1CCN(c2nc(OCCOC)nc3c2CCC(c2c(C)ccc4[nH]ncc24)C3)CC1 (centres unmarked): 19
C=CC(=O)N1CCN(c2ncnc3c2CC[C@@H](c2c(C)ccc4[nH]ncc24)C3)CC1 (single isomer, unassigned): 0
C=CC(=O)N1CCN(c2nc(N3CC(N(C)C)C3)nc3c2C[C@@H](C)[C@H](c2c(Cl)c(C)cc4[nH]ncc24)C3)CC1 (relative stereo) [Example F6]: 83
C=CC(=O)N1CCN(c2ncnc3c2C[C@@H](C)[C@H](c2c(CO)ccc4[nH]ncc24)C3)CC1 [Example D1]: 12
C=CC(=O)N1CCN(c2nc(OC[C@H]3CCCN3C)nc3c2C[C@@H](C)[C@H](c2c(C)ccc4[nH]ncc24)C3)CC1 (relative stereo): 80

QUERY: Please report the recorded % Modification (0.5 h) for C=CC(=O)N1CCN(c2nc(N3CC(CN(C)C)C3)nc3c2C[C@@H](C)[C@H](c2c(C)ccc4[nH]ncc24)C3)CC1 (relative stereo) .
RESULT: 32

QUERY: Please report the recorded % Modification (0.5 h) for C=CC(=O)N1CCN(c2nc(N3CC(N(C)C)C3)nc3c2C[C@H](C)[C@@H](c2c(C)ccc4[nH]ncc24)C3)CC1 (single isomer, unassigned) .
RESULT: 0

QUERY: Please report the recorded % Modification (0.5 h) for C=CC(=O)N1CCN(c2nc(N3CC(N(C)C)C3)nc3c2C[C@H](C)[C@@H](c2c(Cl)c(C)cc4[nH]ncc24)C3)CC1 .
RESULT: 12

QUERY: Please report the recorded % Modification (0.5 h) for C=CC(=O)N1CCN(c2ncnc3c2C[C@@H](C)[C@H](c2c(Cl)c(C)cc4[nH]ncc24)C3)CC1 (relative stereo) .
RESULT: 54

QUERY: Please report the recorded % Modification (0.5 h) for C=CC(=O)N1CCN(c2nc(OC[C@@H]3CCCN3C)nc3c2C[C@@H](C)[C@H](c2c(C)ccc4[nH]ncc24)C3)CC1 .
RESULT: 74

QUERY: Please report the recorded % Modification (0.5 h) for C=CC(=O)N1CCN(c2nc(OCCCO)nc3c2CCC(c2c(C)ccc4[nH]ncc24)C3)CC1 (centres unmarked) .
RESULT: 34

QUERY: Please report the recorded % Modification (0.5 h) for C=CC(=O)N1CCN(c2nc(OCCN(C)C)nc3c2C[C@@H](C)[C@H](c2c(Cl)c(C)cc4[nH]ncc24)C3)CC1 (relative stereo) .
RESULT: 65

---

- target.or.system: KRAS G12C in H358 cells (Homo sapiens, UniProt P01116, G12C)
- Construct: endogenous in cells; host or cells: H358
- experimental.protocol: H358 Cell Activity Assay (Raf-1 RBD capture of active Ras, MSD)
- Format: cell-based
- condition.parameters: 6 hours treatment
// assign rule met if IC50 falls strictly below 0.3 µM, else rule not met (ties count as rule not met)

Before answering, review these 10 worked examples.
C=CC(=O)N1CCN(c2nc(N3CC(N(C)C)C3)nc3c2C[C@@H](C)[C@H](c2c(C)c(Cl)cc4[nH]ncc24)C3)CC1 [Example F14]: rule met
C=CC(=O)N1CCN(c2nc(OCCCN(C)C)nc3c2C[C@@H](C)[C@H](c2c(C)ccc4[nH]ncc24)C3)CC1 [Example C5]: rule not met
C=CC(=O)N1CCN(c2nc(OC[C@H]3CCCN3C)nc3c2C[C@@H](C)[C@H](c2c(C)ccc4[nH]ncc24)C3)CC1 (relative stereo) [Example C10]: rule met
C=CC(=O)N1CCN(c2nc(N3CC(N(C)C)C3)nc3c2C[C@@H](C)[C@H](c2c(C)ccc4[nH]ncc24)C3)CC1 (relative stereo) [Example F1]: rule not met
C=CC(=O)N1CCN(c2nc(N3CC(N(C)C)C3)nc3c2C[C@@H](C)[C@H](c2c(Cl)ccc4[nH]ncc24)C3)CC1 (single isomer, unassigned) [Example F10]: rule not met
C=CC(=O)N1CCN(c2nc(N3CC(N(C)C)C3)nc3c2C[C@@H](C)[C@H](c2c(Cl)c(C)cc4[nH]ncc24)C3)C[C@H]1C [Example F12]: rule met
C=CC(=O)N1CCN(c2nc(OCCN(C)C)nc3c2C[C@@H](C)[C@H](c2c(Cl)c(C)cc4[nH]ncc24)C3)CC1 (relative stereo) [Example C8]: rule met
C=CC(=O)N1CCN(c2nc(N3CC(N(C)C)C3)nc3c2C[C@@H](C)[C@H](c2c(Cl)ccc4[nH]ncc24)C3)CC1 (relative stereo) [Example F5]: rule met
C=CC(=O)N1CCN(c2nc(N3CC(N(C)C)C3)nc3c2C[C@@H](C)[C@H](c2c(Cl)c(C)cc4[nH]ncc24)C3)CC1 (relative stereo) [Example F6]: rule met
C=CC(=O)N1CCN(c2nc(OC[C@@H]3CCCN3C)nc3c2C[C@@H](C)[C@H](c2c(C)ccc4[nH]ncc24)C3)CC1 [Example C9]: rule met

QUERY: Dear colleague, could you confirm whether IC50 of C=CC(=O)N1CCN(c2ncnc3c2C[C@@H](C)[C@H](c2c(C)ccc4[nH]ncc24)C3)CC1 [Example A5] falls below 0.3 µM? Thanks.
RESULT: rule not met

QUERY: Dear colleague, could you confirm whether IC50 of C=CC(=O)N1CCN(c2nc(OCCCN(C)C)nc3c2C[C@@H](C)[C@H](c2c(Cl)c(C)cc4[nH]ncc24)C3)CC1 (relative stereo) [Example C7] falls below 0.3 µM? Thanks.
RESULT: rule met
